The reported numbers originate from paper PMC6087491.

Tested on: CAR cell line
Test: MTT antiproliferative assay against cisplatin-resistant oral squamous
Format: cell-based, human
Conditions: read-out: IC50 (concentration for 50% antiproliferative effect), CAR cells, 48 h
quantity_name: IC50

What IC50 value was documented for this compound, N.N.[Cl][Pt][Cl] [Cisplatin, reference compound] ?
> 100 µM
